Published IC50 for F1F0-ATPase (Bos taurus), assembled from different documents, is shown next.

{"columns": ["smiles", "testedTarget", "IC50"],
 "data": [
  ["C[C@@H](N/C(=N/C(=O)c1ccc(C(F)(F)F)cc1)Nc1cccc(O)n1)C1CCCCC1", "F1F0-ATPase (Bos taurus)", "< 10 µM"],
  ["Cc1oncc1C(=O)/N=C(\\Nc1cc(-c2cc(F)cc(F)c2)n[nH]1)NC1CCCC1", "F1F0-ATPase (Bos taurus)", "< 5 µM"],
  ["N#CCS(=O)(=O)Nc1cccc(N/C(=N\\C(=O)c2ccc(F)c(F)c2)NCc2ccccc2C(F)(F)F)n1", "F1F0-ATPase (Bos taurus)", "< 10 µM"],
  ["CC(C)CN/C(=N\\C(=O)c1cn(C)nc1C(F)(F)F)Nc1cc(-c2cc(F)cc(F)c2)n[nH]1", "F1F0-ATPase (Bos taurus)", "< 5 µM"],
  ["COC[C@H](C)N/C(=N/C(=O)c1cc(C)oc1C(F)(F)F)Nc1cc(C)n[nH]1", "F1F0-ATPase (Bos taurus)", "> 16 µM"],
  ["CC(C)N/C(=N/C(=O)c1cccc(F)c1)Nc1n[nH]c2ccc(C(F)(F)F)cc12", "F1F0-ATPase (Bos taurus)", "< 5 µM"]
]}

What does the data say about its IC50? Entry: `CC(C)CN/C(=N/C(=O)c1ccc(F)c(F)c1)Nc1n[nH]c2ccccc12` > 16 µM
